Listed next: entries and their corresponding Kd.
Target: T1, human Mdm2 1-125 (human)
T1 construct: Mdm2, human, residues 1-125; the stretch after the TEV site ENLYFQG of the fusion protein; source: E. coli BL21 (DE3) Rosetta T1R, purified (Ni-NTA, gel filtration)
T1 sequence (chain, as listed by the source): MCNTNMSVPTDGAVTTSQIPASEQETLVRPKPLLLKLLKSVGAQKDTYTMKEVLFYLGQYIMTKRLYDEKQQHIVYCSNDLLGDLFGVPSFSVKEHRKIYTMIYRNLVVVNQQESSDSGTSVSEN
Test: fluorescence polarisation; competitive fluorescence anisotropy: unlabelled peptide titrated against 250 nM Mdm2 (1-125) with 50 nM FAM-labelled 12/1 peptide (FAM-…-NH2); PBS pH 7.4, 0.001% Tween-20; apparent Kd, geometric means
Settings: both partners purified
Positions of bridges follow the written chain, without caps; N, C: chain ends. Non-standard residues stand in square brackets, D forms with d. Primed or numbered codes have the meaning given here. Lys(N3) = [N-]=[N+]=NCCCC[C@H](N)C(=O)O; R8 = C=CCCCCCC[C@@](C)(N)C(=O)O; S5 = C=CCCC[C@](C)(N)C(=O)O; Cba′ = not defined here; βAla = NCCC(=O)O
endpoint name: Kd (nM)

{"binder": "KXLXFXEYWAQXXSAA (homo-Arg (hR) at 2; N-terminal acetyl; Lys(N3) and beta-Ala before residue 1; R8 at 4 and S5 at 11 (olefin staple); Cba at 10; C-terminal amide) [AZIDE-ATSP-7041 (T2hR)]", "endpoint name": "Kd", "experimental value": 2.8}
{"binder": "Ac-[Lys(N3)][βAla]LTF[R8]EYWRQ[Cba′][S5]SAA-NH2 (staple 6-13; reading uncertain) [AZIDE-ATSP-7041 (A8R)]", "endpoint name": "Kd", "experimental value": 69.4}
{"binder": "KXLTFXEYWAQXXSAX (homo-Arg (hR) at 14; N-terminal acetyl; Lys(N3) and beta-Ala before residue 1; R8 at 4 and S5 at 11 (olefin staple); Cba at 10; C-terminal amide) [AZIDE-ATSP-7041 (A14hR)]", "endpoint name": "Kd", "experimental value": 8.6}
{"binder": "KXXTFXEYWAQXXSAA (homo-Arg (hR) at 1; N-terminal acetyl; Lys(N3) and beta-Ala before residue 1; R8 at 4 and S5 at 11 (olefin staple); Cba at 10; C-terminal amide) [AZIDE-ATSP-7041 (L1hR)]", "endpoint name": "Kd", "experimental value": 8.6}
